Listed here are binders together with their documented Fold Difference (Curve IC50).
- subject_of_test: RSV F protein on respiratory syncytial virus (RSV-Long strain) (respiratory syncytial virus (Long strain)) (UniProt P12568)
- Sequence (P12568 26-574): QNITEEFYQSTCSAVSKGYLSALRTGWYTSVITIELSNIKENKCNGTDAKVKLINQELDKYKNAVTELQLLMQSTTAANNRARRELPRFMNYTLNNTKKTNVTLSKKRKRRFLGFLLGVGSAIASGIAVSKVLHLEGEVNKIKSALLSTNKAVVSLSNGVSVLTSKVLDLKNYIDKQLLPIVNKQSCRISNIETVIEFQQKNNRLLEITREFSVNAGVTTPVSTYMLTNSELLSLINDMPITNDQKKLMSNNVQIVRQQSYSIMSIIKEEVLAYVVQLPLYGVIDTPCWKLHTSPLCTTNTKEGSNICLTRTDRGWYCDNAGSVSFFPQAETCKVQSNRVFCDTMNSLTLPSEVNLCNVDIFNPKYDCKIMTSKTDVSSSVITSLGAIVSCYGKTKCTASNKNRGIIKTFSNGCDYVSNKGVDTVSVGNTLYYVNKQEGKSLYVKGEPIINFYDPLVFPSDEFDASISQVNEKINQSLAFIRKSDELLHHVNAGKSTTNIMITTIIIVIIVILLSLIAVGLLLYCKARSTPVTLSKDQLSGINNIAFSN
- procedure_summary: cell-based or functional assay
Numeric only. Scale: fold

// solved cases for Fold Difference (Curve IC50) follow
A12a6 monoclonal antibody (antibody, V domains shown) VH: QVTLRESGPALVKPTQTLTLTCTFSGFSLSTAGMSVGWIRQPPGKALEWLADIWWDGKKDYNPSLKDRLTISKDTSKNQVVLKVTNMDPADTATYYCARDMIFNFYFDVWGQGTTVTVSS VL: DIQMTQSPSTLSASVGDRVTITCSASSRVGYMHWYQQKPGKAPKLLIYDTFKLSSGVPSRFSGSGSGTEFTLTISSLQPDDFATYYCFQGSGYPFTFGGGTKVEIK | 13
A17d4(1) monoclonal antibody (antibody, V domains shown) VH: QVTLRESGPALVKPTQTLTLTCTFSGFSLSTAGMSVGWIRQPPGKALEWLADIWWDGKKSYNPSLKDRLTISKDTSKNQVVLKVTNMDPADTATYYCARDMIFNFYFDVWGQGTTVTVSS VL: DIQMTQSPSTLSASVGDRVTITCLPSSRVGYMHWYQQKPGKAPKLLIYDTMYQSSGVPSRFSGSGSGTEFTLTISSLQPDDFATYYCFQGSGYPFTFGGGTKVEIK | 13
P12f4 monoclonal antibody (antibody, V domains shown) VH: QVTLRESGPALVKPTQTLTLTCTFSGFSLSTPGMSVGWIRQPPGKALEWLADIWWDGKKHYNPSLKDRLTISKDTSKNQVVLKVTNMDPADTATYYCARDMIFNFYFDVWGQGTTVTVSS VL: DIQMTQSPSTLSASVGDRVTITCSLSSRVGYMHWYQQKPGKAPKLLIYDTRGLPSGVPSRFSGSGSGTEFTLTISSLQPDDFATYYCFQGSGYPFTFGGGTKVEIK | 19

Next binder, please.
Fill in the blank: the reported Fold Difference (Curve IC50) of A13a11 Fab fragment (Fab, V domains shown) VH: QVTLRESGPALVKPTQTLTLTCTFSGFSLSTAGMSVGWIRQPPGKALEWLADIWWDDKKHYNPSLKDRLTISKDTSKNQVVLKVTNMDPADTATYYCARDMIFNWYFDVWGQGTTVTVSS VL: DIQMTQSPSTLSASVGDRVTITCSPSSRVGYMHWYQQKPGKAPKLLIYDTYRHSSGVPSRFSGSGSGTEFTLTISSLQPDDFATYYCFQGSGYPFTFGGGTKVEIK is ____.
4
